These data points were gathered from PubChem BioAssay.

- assay-info: inhibitors of E-selectin induction by TNFa, primary screen, imaging, HUVEC, immunofluorescence, MLSMR starter and 10KST1 sets (AID 487);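 note: 100% = median nuclei count of all wells on the same plate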
- condition-set: HUVEC TNFalpha-induced E-selectin immunofluorescence imaging, at 2 µM; measured here: cell number, toxicity
metric: nuclei count

Worked examples follow.
{"compound": "COC(=O)C1=C(C)OC(N)=C(C#N)C1c1c(C)nn(-c2ccccc2)c1Cl (stereo not given)", "nuclei count": "126%"}
{"compound": "O=C(CCN1C(=O)C2C3C=CC(C3)C2C1=O)NC1CCCc2ccccc21 (stereo not given)", "nuclei count": "104%"}
{"compound": "Cn1ncc(N=Cc2ccccc2O)c1C(=O)N1CCOCC1", "nuclei count": "172%"}
{"compound": "COc1ccc(C(=O)OC(C)CN2CCN(C)CC2)cc1OC (stereo not given)", "nuclei count": "154%"}
{"compound": "Cn1c2c(c(=O)n(C)c1=O)C(c1cccc(Br)c1)C1C(=O)c3ccccc3C1=N2 (stereo not given)", "nuclei count": "109%"}
{"compound": "CCOC(=O)c1sc2nc(NC(=O)C3CCCCC3)sc2c1C", "nuclei count": "96%"}
{"compound": "O=C(Nc1ccc(S(=O)(=O)Nc2ccc(Cl)cc2)cc1)C1CCCO1 (stereo not given)", "nuclei count": "101%"}
{"compound": "CCN(CC)CCN1C(=O)C(=O)/C(=C(/O)c2c(C)[nH]c(C(=O)OC)c2C)C1c1ccc(OC)cc1 (stereo not given)", "nuclei count": "194%"}
{"compound": "C=CCn1c(SCc2ccc(C#N)cc2)nnc1-c1cccc(Cl)c1", "nuclei count": "187%"}

Attention now shifts to the item below.
Briefly, nuclei count measured for CCCCCOC(=O)C(C)c1c(C)[nH]c(=S)[nH]c1=O (stereo not given) : 158%

====

- target-under-test: Dual specificity protein phosphatase 6 (Homo sapiens) (UniProt Q16828)
- Sequence (Q16828 whole entry, looked up): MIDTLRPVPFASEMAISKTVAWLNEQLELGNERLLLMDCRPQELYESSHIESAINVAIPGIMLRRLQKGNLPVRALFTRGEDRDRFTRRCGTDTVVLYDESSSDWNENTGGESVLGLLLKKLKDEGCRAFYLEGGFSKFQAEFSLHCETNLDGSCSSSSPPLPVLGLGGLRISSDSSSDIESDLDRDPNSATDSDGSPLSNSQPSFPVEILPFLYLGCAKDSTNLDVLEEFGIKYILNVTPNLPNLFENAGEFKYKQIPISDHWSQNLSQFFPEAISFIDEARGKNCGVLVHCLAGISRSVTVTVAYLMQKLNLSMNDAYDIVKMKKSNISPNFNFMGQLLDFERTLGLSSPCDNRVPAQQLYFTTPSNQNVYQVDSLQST
- assay-info: DUSP6 inhibitors restoring Erk phosphorylation by chemical complementation, primary imaging in DUSP6-transfected HeLa (AID 609);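 for inhibition: phospho-Erk level distribution per well compared with pooled transfected vehicle control wells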
- condition-set: HeLa MKP-3 transfected, phospho-Erk imaging KS statistic; at 10 µM; stronger effect = higher value; cells stimulated with TPA for 15 min
Active and inactive are the calls of the source.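 How the source made its calls: active means compounds giving at least 50% inhibition in the cell-based MKP-3 phosphatase rescue imaging test; inactive means the rest.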
# inhibition values compiled below

Worked examples follow.
{"molecule": "O=C(O)CCc1nn2cc(-c3ccccc3)nc2[nH]c1=O", "inhibition": "-7.93% (inactive)"}
{"molecule": "CC1(C)NC(=O)N(CC(O)COc2cc3ccccc3cc2C(=O)N2CCCCC2)C1=O (configuration not stated)", "inhibition": "5.42% (inactive)"}
{"molecule": "Cc1ccc(N2C(=O)CC3(CC4C=CC3C4)C2=O)cc1 (configuration not stated)", "inhibition": "-2.09% (inactive)"}
{"molecule": "CCN(CC)CCN1C(=O)C(=O)/C(=C(/O)c2c(C)[nH]c(C(=O)OC)c2C)C1c1ccc(OC)cc1 (configuration not stated)", "inhibition": "0.671% (inactive)"}
{"molecule": "CC(=O)N1CCN(C2c3cccc4cccc(c34)C2NS(=O)(=O)c2ccccc2)CC1 (configuration not stated)", "inhibition": "33.3% (inactive)"}

Briefly, inhibition measured for "C=C(C)CSc1nnc2n(C)c(=O)c3c4c(sc3n12)CCC4" : 15.4% (inactive)

Briefly, inhibition measured for "N#Cc1nc(COc2ccccc2Cl)oc1NCc1ccc(F)cc1" : 2.71% (inactive)

Briefly, inhibition measured for "CCCn1nc(Oc2nc(SC)nc(N(C)C)n2)ccc1=O" : 16.1% (inactive)

Briefly, inhibition measured for CCOc1ccc(/C(O)=C2/C(=O)C(=O)N(c3cc(C)on3)C2c2ccc(C(=O)OC)cc2)cc1 (configuration not stated) : 9.37% (inactive)

Briefly, inhibition measured for COc1ccc(/C(O)=C2/C(=O)C(=O)N(c3nc(C)c(C)s3)C2c2ccco2)cc1 (configuration not stated) : 12.7% (inactive)

Briefly, inhibition measured for "Cc1cc(SCCC(=O)O)nc2ccccc12" : 5.95% (inactive)

Briefly, inhibition measured for "Cc1ccc(C(=O)NCCCNCCCNC(=O)c2ccc(C)nc2)cn1" : 3.56% (inactive)

Briefly, inhibition measured for COc1ccc(C2=CC(c3ccc(C)cc3)n3nnnc3N2)cc1 (configuration not stated) : -9.91% (inactive)

Briefly, inhibition measured for CC(O)CNc1nc2c(c(=O)n(C)c(=O)n2C)n1CCc1ccccc1 (configuration not stated) : 5.95% (inactive)

====

- assay-info: DUSP6 inhibitors restoring Erk phosphorylation by chemical complementation, primary imaging in DUSP6-transfected HeLa (AID 609)
- condition-set: HeLa MKP-3 transfected, phospho-Erk imaging KS statistic; measured here: cell density z-score; at 10 µM; cells stimulated with TPA for 15 min
Binary call on z-score: yes from 0.3 upward, no beneath that.

{"molecule": "CC(=O)C1=C(O)C(=O)N(c2ccc(S(N)(=O)=O)cc2)C1c1ccccc1F (stereo not given)", "group": "no"}

Incoming: Textbook exercise: given the entry COc1ccc(OC)c(C2C(C#N)=C(N)Oc3cc(C)n(Cc4ccccn4)c(=O)c32)c1 (stereo not given) , state whether its z-score is greater than or equal to 0.3.
Outgoing: yes

Incoming: Textbook exercise: given the entry CCc1ccc(NC(=O)CSC2=C(C#N)C(c3ccc4c(c3)OCO4)CC(=O)N2)cc1 (stereo not given) , state whether its z-score is greater than or equal to 0.3.
Outgoing: yes

Incoming: Textbook exercise: given the entry O=C1C=C(O)CC(c2ccc(Cl)c(Cl)c2)C1 (stereo not given) , state whether its z-score is greater than or equal to 0.3.
Outgoing: yes

Incoming: Textbook exercise: given the entry "CCOC(=O)c1c(N)sc(=S)c2c1CCC2" , state whether its z-score is greater than or equal to 0.3.
Outgoing: yes

Incoming: Textbook exercise: given the entry "CC(C)c1[nH]c(=O)c(C#N)c2c1CSC(C)(C)C2" , state whether its z-score is greater than or equal to 0.3.
Outgoing: no

Incoming: Textbook exercise: given the entry Cc1ccc(CNC(=O)c2cc3c(=O)n4ccccc4nc3n(CC3CCCO3)c2=N)cc1 (stereo not given) , state whether its z-score is greater than or equal to 0.3.
Outgoing: no

Incoming: Textbook exercise: given the entry "Cc1cc(C)n(-c2c(F)c(F)c(CN3CCCCC3)c(F)c2F)n1" , state whether its z-score is greater than or equal to 0.3.
Outgoing: no

Incoming: Textbook exercise: given the entry "Cc1cccc(NC(=O)c2cc(N3CCOCC3)nc3ccccc23)c1" , state whether its z-score is greater than or equal to 0.3.
Outgoing: no

====

# inhibition values compiled below
- assay-info: inhibitors of Sendai virus-induced IRF3 signaling, primary screen, TLR/RLR signaling modifier project, cell-based, Sendai virus stimulus, luciferase, 10K MLSCN set (AID 602276);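 note: firefly luciferase from ISG56 promoter only with Renilla not read in this screen; 0% = Sendai virus plus DMSO and 100% = medium plus DMSO without virus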
- condition-set: HEK293 RL24 IRF3 luciferase reporter, at 10 µM, stronger effect = higher value
Hi! Could you send only the number? It should be in %, unit omitted.

Worked examples follow.
{"compound": "N#Cc1ccc(-c2csc(NC(=O)C3CC3)n2)cc1", "metric": "inhibition", "quantitative-result": -27.3}
{"compound": "CCN(CCCNC(=O)CC1Oc2ccc(C)cc2NC1=O)Cc1ccccc1 (configuration not stated)", "metric": "inhibition", "quantitative-result": -5.16}
{"compound": "O=C(COC(=O)C1CC1)c1c[nH]c2ccccc12", "metric": "inhibition", "quantitative-result": -49.1}
{"compound": "O=C(NCC(c1cccnc1)N1CCN(c2ccccc2)CC1)c1ccc2c(c1)OCO2 (configuration not stated)", "metric": "inhibition", "quantitative-result": 8.91}
{"compound": "CCCCc1ccc(NC(=O)N[C@H](C(=O)O)C(C)C)cc1", "metric": "inhibition", "quantitative-result": -0.498}

Briefly, inhibition measured for "Cc1ccc(-c2noc(CCC(=O)NCCc3ccccc3Cl)n2)cc1" : 10.3

Briefly, inhibition measured for "Cc1ccccc1-n1c(SCc2c(C)noc2C)nnc1-c1ccncc1" : 6.71

====

# inhibition values compiled below
- assay-info: inhibitors of TNFa-induced NFkB p65 translocation, primary screen, imaging, HUVEC, MLSMR starter and 10KST1 sets (AID 438);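 note: compound added about 3h40 before a 20 min TNFalpha stimulation; signal is the nuclear over cytoplasmic p65 intensity ratio per well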
- condition-set: HUVEC TNFa-induced p65 nuclear translocation; at 2 µM, stronger effect = higher value, 0% TNFa-plus-vehicle, 100% no-TNFa wells
Hi! Could you send only the number? It should be in %, unit omitted.

Worked examples follow.
{"compound": "CCCCOc1ccc(C(=O)N2CCCC2C(=O)O)cc1 (configuration not stated)", "quantitative-result": 2.7}
{"compound": "COC(=O)CSc1nc(C)c(Oc2ccccc2)c(=O)[nH]1", "quantitative-result": 7.2}
{"compound": "Cc1ccc(CSC2=NCCN2C(=O)c2ccco2)cc1", "quantitative-result": 1.3}
{"compound": "CN(C#N)c1nc(N2CCOCC2)nc(N2CCOCC2)n1", "quantitative-result": -3.8}
{"compound": "CCN(CC)S(=O)(=O)c1ccc(NC(=O)Cn2cnc3ccccc3c2=O)cc1", "quantitative-result": -1.8}
{"compound": "CCCc1cc(Nc2c(C)n(C)n(-c3ccccc3)c2=O)n2c(nc3ccccc32)c1C#N", "quantitative-result": -3.4}
{"compound": "CCCCSc1nnc(-c2ccc(NC(C)=O)cc2)n1C", "quantitative-result": -5.3}
{"compound": "COC(=O)c1nnn(-c2ccccc2)c1N", "quantitative-result": 10.6}

Briefly, inhibition measured for "Cc1ccc2cc(CNC(C)(C)C)c(=O)[nH]c2c1" : -4.2

Briefly, inhibition measured for "CCCCS(=O)(=O)NC1=NCN(C2CCN(Cc3ccccc3)CC2)CN1" : -2.1

Briefly, inhibition measured for "C(=N\c1c(-c2ccccc2)nc2n1CCS2)/c1ccccc1" : -22.1

Briefly, inhibition measured for c1ccc2c(c1)c1c3n2CCNC3CCC1 (configuration not stated) : -11.5
